- System: T1, biotinylated cTfR1 (Acro Bio p/n TFR-C8249) (cynomolgus monkey, UniProt H9EXL1 89-760 (rhesus entry), biotinylated; site not stated)
- T1 construct: Bought reagent of the BLI assay
- T1 sequence (chain, as listed by the source): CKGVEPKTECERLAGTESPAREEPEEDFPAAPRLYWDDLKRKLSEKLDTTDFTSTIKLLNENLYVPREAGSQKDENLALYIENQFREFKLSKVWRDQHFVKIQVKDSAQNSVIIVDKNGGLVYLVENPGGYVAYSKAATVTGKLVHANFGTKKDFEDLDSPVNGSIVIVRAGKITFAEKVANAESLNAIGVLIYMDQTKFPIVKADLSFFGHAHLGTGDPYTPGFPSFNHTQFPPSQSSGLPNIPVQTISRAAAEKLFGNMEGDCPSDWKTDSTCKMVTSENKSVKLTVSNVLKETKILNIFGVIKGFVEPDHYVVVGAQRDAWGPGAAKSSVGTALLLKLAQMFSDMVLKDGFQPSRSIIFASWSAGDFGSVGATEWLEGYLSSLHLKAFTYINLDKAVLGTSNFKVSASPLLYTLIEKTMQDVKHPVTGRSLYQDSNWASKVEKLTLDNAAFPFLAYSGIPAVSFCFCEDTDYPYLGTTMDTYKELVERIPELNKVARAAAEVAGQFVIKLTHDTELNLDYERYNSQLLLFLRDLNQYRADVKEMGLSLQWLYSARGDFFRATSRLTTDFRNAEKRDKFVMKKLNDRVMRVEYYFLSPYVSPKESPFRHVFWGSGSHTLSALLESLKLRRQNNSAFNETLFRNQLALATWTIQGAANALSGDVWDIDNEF
- Protocol Description: BLI, Octet RH16, biotinylated TfR1 on streptavidin sensor; Fab-siRNA conjugate
Measured kon accompanies every entry in the list below.
Numeric only. Scale: M⁻¹ s⁻¹

**Q:** Fill in kon for record Fab0074-siRNA conjugate (Fab, V domains shown, siRNA-linker on a reduced cysteine; chain and residue not stated, also called Fab0074 (BLI conjugate columns)) VH: EVQLVESGGGLVQPGGSLRLSCATSGYTFKSYWMHWVRQAPGKGLEWVAEINPTNGRTNYIEKFKSRITLSVDKSKSTVYLQMNSLRAEDTAVYYCARGTRAYHYWGQGTLVTVSS VL: DIQLTQSPSSLSASVGDRVTITCRASDGLYSNLAWYQQKPGKAPKLLIYDAKNLASGVPSRFSGSGSGTDYTLTISSLQPEDFATYYCQHFWGTPLTFGQGTKVEIKR
**A:** 264000

**Q:** Fill in kon for record Fab0071-siRNA conjugate (Fab, V domains shown, siRNA-linker on a reduced cysteine; chain and residue not stated, also called Fab0071 (BLI conjugate columns)) VH: EVQLVESGGGLVQPGGSLRLSCATSGYTFNSYWMHWVRQAPGKGLEWVAEINPTNGRTNYIEKFKSRITLSVDKSKSTVYLQMNSLRAEDTAVYYCARGTRAYHYWGQGTLVTVSS VL: DIQLTQSPSSLSASVGDRVTITCRASDGLYSNLAWYQQKPGKAPKLLIYDARNLASGVPSRFSGSGSGTDYTLTISSLQPEDFATYYCQHFWGTPLTFGQGTKVEIKR
**A:** 234000

**Q:** Fill in kon for record Fab0002-siRNA conjugate (Fab, V domains shown, siRNA-linker on a reduced cysteine; chain and residue not stated, also called Fab0002 (BLI conjugate columns)) VH: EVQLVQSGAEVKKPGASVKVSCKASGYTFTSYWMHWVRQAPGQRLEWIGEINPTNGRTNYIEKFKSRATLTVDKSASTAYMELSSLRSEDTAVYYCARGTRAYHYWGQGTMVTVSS VL: DIQMTQSPSSLSASVGDRVTITCRASDNLYSNLAWYQQKPGKSPKLLVYDATNLADGVPSRFSGSGSGTDYTLTISSLQPEDFATYYCQHFWGTPLTFGQGTKVEIKR
**A:** 292000

**Q:** Fill in kon for record Fab0072-siRNA conjugate (Fab, V domains shown, siRNA-linker on a reduced cysteine; chain and residue not stated, also called Fab0072 (BLI conjugate columns)) VH: EVQLVESGGGLVQPGGSLRLSCATSGYTFNSYWMHWVRQAPGKGLEWVAEINPTNGRFNYIEKFKSRITLSVDKSKSTVYLQMNSLRAEDTAVYYCARGTRAYHYWGQGTLVTVSS VL: DIQLTQSPSSLSASVGDRVTITCRASDNLYRNLAWYQQKPGKAPKLLIYDARNLASGVPSRFSGSGSGTDYTLTISSLQPEDFATYYCQHFWGTPLTFGQGTKVEIKR
**A:** 368000

**Q:** Fill in kon for record Fab0066-siRNA conjugate (Fab, V domains shown, siRNA-linker on a reduced cysteine; chain and residue not stated, also called Fab0066 (BLI conjugate columns)) VH: EVQLVESGGGLVQPGGSLRLSCATSGYTFTSYWVHWVRQAPGKGLEWVAEINPTNGRVNYIEKFKSRITLSVDKSKSTVYLQMNSLRAEDTAVYYCARGTRAYHYWGQGTLVTVSS VL: DIQLTQSPSSLSASVGDRVTITCRASDGLYSNLAWYQQKPGKAPKLLIYDAFNLASGVPSRFSGSGSGTDYTLTISSLQPEDFATYYCQHFWGTPLTFGQGTKVEIKR
**A:** 334000

**Q:** Fill in kon for record Fab0060-siRNA conjugate (Fab, V domains shown, siRNA-linker on a reduced cysteine; chain and residue not stated, also called Fab0060 (BLI conjugate columns)) VH: EVQLVESGGGLVQPGGSLRLSCATSGYTFTSYWVHWVRQAPGKGLEWVAEINPTNGRTNYIEKFKSRITLSVDKSKSTVYLQMNSLRAEDTAVYYCARGTRAYHYWGQGTLVTVSS VL: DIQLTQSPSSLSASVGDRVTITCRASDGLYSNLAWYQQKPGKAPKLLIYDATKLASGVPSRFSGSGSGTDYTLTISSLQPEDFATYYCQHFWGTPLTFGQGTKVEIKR
**A:** 276000

**Q:** Fill in kon for record Fab0067-siRNA conjugate (Fab, V domains shown, siRNA-linker on a reduced cysteine; chain and residue not stated, also called Fab0067 (BLI conjugate columns)) VH: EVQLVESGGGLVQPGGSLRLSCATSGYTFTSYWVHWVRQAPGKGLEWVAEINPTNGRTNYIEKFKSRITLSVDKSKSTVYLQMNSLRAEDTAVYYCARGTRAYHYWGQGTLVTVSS VL: DIQLTQSPSSLSASVGDRVTITCRASDNLYRNLAWYQQKPGKAPKLLIYDATKLASGVPSRFSGSGSGTDYTLTISSLQPEDFATYYCQHFWGTPLTFGQGTKVEIKR
**A:** 378000

**Q:** Fill in kon for record Fab0065-siRNA conjugate (Fab, V domains shown, siRNA-linker on a reduced cysteine; chain and residue not stated, also called Fab0065 (BLI conjugate columns)) VH: EVQLVESGGGLVQPGGSLRLSCATSGYTFTSYWVHWVRQAPGKGLEWVAEINPTNGRSNYIEKFKSRITLSVDKSKSTVYLQMNSLRAEDTAVYYCARGTRAYHYWGQGTLVTVSS VL: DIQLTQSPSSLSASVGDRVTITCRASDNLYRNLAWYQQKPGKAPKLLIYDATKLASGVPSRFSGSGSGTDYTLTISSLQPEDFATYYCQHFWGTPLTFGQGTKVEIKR
**A:** 231000

Data origin, for the record: patent US20260191981A1
